EXPERIMENTAL PROTOCOL: small-molecule binders of probe aNOTCH2, primary screen, biochemical, small-molecule microarray, 635/667 nm fluorescence (AID 1121);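 note: score merges feature fluorescence read at 667 nm with its signal to noise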
EXPERIMENTAL PARAMETERS: higher = more signal
Tag: MET if measured composite z-score is not below -0.1, NOT MET if it is.

CCC1=NOC(CCC2CC(OC(=O)NCc3cccc4c3OCO4)CC3(CCCC(COC(=O)NCCc4ccccc4OC)O3)O2)C1 (stereo unspecified)
NOT MET
COCCNC(=O)OCC1CCCC2(CC(OC(=O)NCc3ccc4c(c3)OCO4)CC(CCC(=O)N[C@@H](C)C(=O)OC)O2)O1 (stereo partly specified)
MET
CC(CCN1CCc2nc(-c3ccccc3)c(-c3ccccc3)cc2C1)=NOC[C@@H](O)COCc1ccco1
NOT MET
CON=C1[C@H]2CCn3c(=O)n(-c4ccccc4)c(=O)n3[C@H]2[C@H](O)[C@@H]2O[C@H]12
NOT MET
CC(C)(C)N1C(=O)[C@H]2[C@H]3[C@H](O)[C@H](O)CC(=NOCc4ccccc4)[C@H]3CC[C@H]2C1=O
MET
CO[C@H]1COC(=O)[C@@H]2CCCN2C(=O)CC=C[C@@H](C)[C@H](OC)COC(=O)[C@@H](OCc2ccccc2)C=C[C@@H]1C
NOT MET
CCOC(=O)C1=NO[C@]2(C=C(Br)C3(OCCCO3)[C@H]3O[C@H]32)C1
MET
CSCC[C@@H]1NC(=O)CC=C[C@@H](C)COC(=O)[C@@H](C)COC1=O
NOT MET
CO[C@@H]1COC(=O)[C@@H](C)COC(=O)[C@@H](C)NC(=O)CC=C[C@@H]1C
NOT MET
C=C(C)C(=O)OCC1CN2[C@@H](CC[C@@H](C)[C@@H]2c2ccc(Br)cc2)C(=O)O1 (stereo partly specified)
NOT MET
CO[C@H]1COC(=O)[C@@H](C)COC(=O)[C@H](COCc2ccccc2)NC(=O)CC=C[C@H]1C
NOT MET
CC(C)=CCCC(C)=CCON=C1C[C@@H](O)[C@@H](O)[C@@H]2[C@@H]3C(=O)N(Cc4ccccc4)C(=O)[C@@H]3CC[C@@H]12
NOT MET
CCOC(=O)[C@H](CC(C)C)NC(=O)CCC1CC(OC(=O)NCc2cccc3ccccc23)CC2(CCCC(COC(=O)NCCC(C)C)O2)O1 (stereo partly specified)
NOT MET
CCOC(=O)NN=C1C[C@@H](O)[C@@H](O)[C@@H]2[C@@H]3C(=O)N(c4cccc(Oc5ccccc5)c4)C(=O)[C@@H]3CC[C@H]12
MET
